Reported values of lowest phenotypically active concentration for individual entries
# System: HepG2-TP53BP1-CLTA
# assay-text: lowest phenotypically active concentration; higher = less potent
# measurement-parameters: treatment time: 24 h
quantity: lowest phenotypically active concentration (µM)

- compound: "C[C@]1(O)C[C@@H](c2nc(-c3ccc4ccc(-c5ccccc5)nc4c3)c3c(N)nccn32)C1 [linsitinib]"
  tested-on: "HepG2-TP53BP1-CLTA"
  value-units: "µM"
  measurement: 9
- compound: "Cc1cc2c(F)c(Oc3ncnn4cc(OC[C@@H](C)OC(=O)[C@H](C)N)c(C)c34)ccc2[nH]1 [brivanib-alaninate]"
  tested-on: "HepG2-TP53BP1-CLTA"
  value-units: "µM"
  measurement: 3
- compound: "CCOC(=O)CCNc1cc(N2CCc3ccccc3CC2)nc(-c2ccccn2)n1"
  tested-on: "HepG2-TP53BP1-CLTA"
  value-units: "µM"
  measurement: 3
- compound: "COc1cc2c(NC3CCN(C(C)C)CC3)nc(N3CCC(F)(F)CC3)nc2cc1OCCCN1CCCC1"
  tested-on: "HepG2-TP53BP1-CLTA"
  value-units: "µM"
  measurement: 1
- compound: "O=C(NCCN1CCC(n2c(=O)[nH]c3ccccc32)CC1)c1cc2cc(F)ccc2[nH]1"
  tested-on: "HepG2-TP53BP1-CLTA"
  value-units: "µM"
  measurement: 9

###

# System: HepG2-GM130-SQSTM1
# assay-text: phenotypically active (imaging signature differs from DMSO and reproducible) at any of 0.3-9 uM (binary (1 = active, 0 = inactive)); higher = active
# measurement-parameters: treatment time: 24 h
Where a name gives a salt, the structure may show the parent alone.
quantity: phenotypically active

- compound: "CCN(CC)c1ccc(/C=N/NC(=O)c2ccncc2)c(O)c1"
  quantity: "phenotypically active"
  measurement: 1
- compound: "CCCS(=O)(=O)Nc1ccc(F)c(C(=O)c2c[nH]c3ncc(Cl)cc23)c1F"
  quantity: "phenotypically active"
  measurement: 1
- compound: "CCO[C@@H](Cc1ccc(OCCc2ccc(OS(C)(=O)=O)cc2)cc1)C(=O)O [Tesaglitazar]"
  quantity: "phenotypically active"
  measurement: 0
- compound: "Fc1ccc([C@@H]2CCNC[C@H]2COc2ccc3c(c2)OCO3)cc1 [paroxetine]"
  quantity: "phenotypically active"
  measurement: 1
- compound: "Cc1cc(C)cc(C(=O)NOCCCCCC(=O)NO)c1"
  quantity: "phenotypically active"
  measurement: 1
- compound: "CC(=O)[C@H]1CC[C@H]2[C@@H]3CCC4=CC(=O)CC[C@]4(C)[C@H]3CC[C@]12C [progesterone]"
  quantity: "phenotypically active"
  measurement: 0
- compound: "Fc1ccccc1Nc1nc2nonc2nc1Nc1ccccc1F"
  quantity: "phenotypically active"
  measurement: 0
- compound: "Cn1cnc2c(F)c(Nc3ccc(Br)cc3Cl)c(C(=O)NOCCO)cc21 [selumetinib]"
  quantity: "phenotypically active"
  measurement: 1
- compound: "Nc1nc(OCC2CCCCC2)c2nc[nH]c2n1"
  quantity: "phenotypically active"
  measurement: 0
- compound: "Cc1ncc(-c2ccnc(Nc3ccc(S(C)(=O)=O)cc3)n2)n1C(C)C"
  quantity: "phenotypically active"
  measurement: 1
- compound: "C=CCc1ccccc1OC[C@@H](O)CNC(C)C [Alprenolol hydrochloride]"
  quantity: "phenotypically active"
  measurement: 0
- compound: "COc1ccc2c(c1)c(CC(=O)O)c(C)n2C(=O)c1ccc(Cl)cc1 [indomethacin]"
  quantity: "phenotypically active"
  measurement: 0
- compound: "COc1ccc([C@@H]2CC(=O)c3c(O)cc(O[C@@H]4O[C@H](CO[C@@H]5O[C@@H](C)[C@H](O)[C@@H](O)[C@H]5O)[C@@H](O)[C@H](O)[C@H]4O)cc3O2)cc1O [Hesperidin]"
  quantity: "phenotypically active"
  measurement: 0
- compound: "Cc1occc(=O)c1O [3-hydroxy-2-methyl-4-pyrone]"
  quantity: "phenotypically active"
  measurement: 0
- compound: "O=C(Nc1c[nH]nc1-c1nc2cc(CN3CCOCC3)ccc2[nH]1)NC1CC1"
  quantity: "phenotypically active"
  measurement: 1
- compound: "COc1cc2c(cc1OC)C(=O)C(CC1CCN(Cc3ccccc3)CC1)C2 (centres undefined) [donepezil]"
  quantity: "phenotypically active"
  measurement: 0
- compound: "COc1ccc2cc(CCC(C)=O)ccc2c1 [nabumetone]"
  quantity: "phenotypically active"
  measurement: 0
- compound: "O=C1CCC[C@@H]2[C@H]3CCC[N+]4([O-])CCC[C@@H](CN12)[C@@H]34 (some centres undefined) [Oxymatrine]"
  quantity: "phenotypically active"
  measurement: 0
- compound: "Nc1ncnc2c1cnn2-c1ccccc1"
  quantity: "phenotypically active"
  measurement: 0
